# IC50 annotations
molecular target: 5-lipoxygenase (Rattus norvegicus); construct: supernatant fraction of Rat Basophilic Leukemia Cell Homogenate (RBL-1) serves as a 5-lipoxygenase enzyme source; endogenous in cells; test: Inhibition of 5-lipoxygenase, in vitro; conditions: 100,000×g supernatant of RBL-1 homogenate, 14C-arachidonic acid, 5-HETE measured
Sequence (P12527 whole entry): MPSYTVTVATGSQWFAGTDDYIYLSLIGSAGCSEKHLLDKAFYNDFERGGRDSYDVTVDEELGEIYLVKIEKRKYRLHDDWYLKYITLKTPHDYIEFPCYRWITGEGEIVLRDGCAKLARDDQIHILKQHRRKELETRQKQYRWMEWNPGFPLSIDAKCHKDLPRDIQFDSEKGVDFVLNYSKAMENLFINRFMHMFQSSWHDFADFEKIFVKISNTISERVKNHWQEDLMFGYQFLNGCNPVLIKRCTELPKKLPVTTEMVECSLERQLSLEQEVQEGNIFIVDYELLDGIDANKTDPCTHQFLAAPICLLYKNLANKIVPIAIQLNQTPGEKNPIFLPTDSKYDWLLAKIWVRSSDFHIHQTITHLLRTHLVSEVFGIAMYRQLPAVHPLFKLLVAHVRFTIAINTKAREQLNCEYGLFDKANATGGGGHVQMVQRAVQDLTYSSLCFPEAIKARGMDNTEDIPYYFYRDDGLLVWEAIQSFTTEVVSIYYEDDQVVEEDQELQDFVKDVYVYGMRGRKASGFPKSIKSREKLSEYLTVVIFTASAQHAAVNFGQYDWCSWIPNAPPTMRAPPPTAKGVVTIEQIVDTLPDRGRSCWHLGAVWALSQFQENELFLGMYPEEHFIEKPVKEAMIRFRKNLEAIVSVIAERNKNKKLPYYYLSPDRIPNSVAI
Numbers only; they are read as nM.

# example entries with known answers
>>> reported_measurement("COC(=O)CCCSCCSc1cc(C(C)(C)C)c(O)c(C(C)(C)C)c1 [Example 15]")
120
>>> reported_measurement("CCOC(=O)CS(=O)(=O)CCSc1cc(C(C)(C)C)c(O)c(C(C)(C)C)c1 [Example 17]")
300

Please look up its IC50: CC(SCC(=O)O)C(C)Sc1cc(C(C)(C)C)c(O)c(C(C)(C)C)c1 (stereo not shown) [Example 20]
820
